System: KM12 colon
Assay: NCI-60 one-dose screen, 48 h
Conditions: 10 µM unless noted
Experimental: Growth inhibition of the KM12 human tumor cell line is measured as a screen for anti-cancer activity. Cells are grown in 96 well plates and exposed to the test compound for 48 hours. Compounds are tested at a single concentration, which is 10^-5 M for most compounds. The reported endpoint is percent growth (GI% or GIPRCNT), where numbers from 0 - 100% represent growth inhibition, and numbers from -100% - 0 represent cell death. For example, a value of 40 represents 60% growth inhibition. […]
The panel holds about 83,000 compounds, 20% with a hit somewhere; the sample as a whole holds those more often. Active and inactive are the calls of the source. Rule for the calls: active = growth percent below 10; inactive = the rest.
Possible outcomes: active, inactive

In [3]: df
Out[3]:
                                   compound  assayed_target       cat
0          COc1cccc(/C=N\NC(=O)c2ccncc2)c1O      KM12 colon  inactive
1  c1ccc(-c2n(Cc3ccc4ccccc4c3)cc[n+]2Cc2ccc3ccccc3c2)cc1      KM12 colon    active
2      O=C1/C(=C/c2ccccc2O)C(=S)SN1Cc1ccco1      KM12 colon  inactive
3  COc1cc(/C=C/C(=O)CC(=O)/C=C/c2ccc(OC(=O)C3C4CC5CC(C4)CC3C5)c(OC)c2)ccc1OC(=O)C1C2CC3CC(C2)CC1C3 (centres undefined)      KM12 colon  inactive
4  C[C@H]1C(=O)N2c3ccccc3[C@@]3(O)C[C@@H](n4cnc5ccccc5c4=O)C(=O)N1[C@@H]23      KM12 colon  inactive
5             Cc1[nH]ccc2cc3nc4ccccc4c3cc12      KM12 colon  inactive
6  COc1cccc(N2CCN(CC(=O)N3CCN(c4nnc(-c5ccc(Cl)cc5)c(-c5ccc(Cl)cc5)n4)CC3)CC2)c1      KM12 colon  inactive
7  COc1ccc(OC)c(CCn2cncc2-c2c[nH]c3cc(Br)ccc23)c1      KM12 colon  inactive
8  O=C(CC1Sc2ccccc2NC1=O)NNc1cccc(Cl)c1Cl (centres undefined)      KM12 colon  inactive

----------
# key: entry, value: growth
test system: RXF 393 renal; assay: NCI-60 one-dose screen, 48 h (100 = growth as untreated, 0 = no growth, -100 = all killed); conditions: 10 µM unless noted
Compounds without any hit were thinned out: in the full panel of roughly 83,000, 20% have a hit.
VALUE_TYPE: growth (%)

In [3]: df
Out[3]:
                                   compound  assayed_target  value_observed
0  Cc1cc(=O)[nH]c(/C(=N/Nc2ccccc2)C(=O)c2ccc(Cl)cc2)n1   RXF 393 renal            28.5
1  COc1ccc(-c2nc3sc4c(c3c(=O)[nH]2)CCCCCC4)cc1   RXF 393 renal            28.4
2  O=C(c1ccccc1)C(CN1CCCCC1)c1ccccc1 (centres undefined)   RXF 393 renal            42.4
3  COc1ccc2c(c1)sc1nc(-c3ccc(N(C)C)cc3)cn12   RXF 393 renal             114
4  Nc1nc(Nc2ccccc2SSc2ccccc2Nc2nc(N)nc(C(Cl)(Cl)Cl)n2)nc(C(Cl)(Cl)Cl)n1   RXF 393 renal            67.2
5  Cc1cc2c(cc1C)[n+](Cc1ccc3ccccc3c1)cn2Cc1ccc2ccccc2c1   RXF 393 renal             -87
6  CC[C@@H](C)/C=C(C)/C=C/C(O)=C1\C(=O)N[C@@H](Cc2ccc(OC(=O)[C@@](OC)(c3ccccc3)C(F)(F)F)cc2)C1=O   RXF 393 renal             109
7  O=C(/C=C/c1cccc(O)c1)c1cccc(-n2cc(-c3ccccc3)[nH]c2=O)c1   RXF 393 renal           -62.4
8  Cc1[nH]c(=O)[nH]c(=O)c1CCSSCCc1c(C)[nH]c(=O)[nH]c1=O   RXF 393 renal             111
